Data origin: paper PMC12408683

System: HepG2 cells
PROTOCOL DETAILS: Resazurin reduction assay (cytotoxicity) in HepG2 cells
CONDITION: read-out: EC50 (cell viability); 24 h
REPORTED ENDPOINT: EC50 (µM)
Answers are plain numbers, in µM.

Param item = C=CC(O)c1ccc(OC)cc1 (stereo not shown) [1′OH-ES, 1′-hydroxyestragole] ; retrieve measured EC50.
43
